// data source = patent EP4350345A2

# TESTED ON: monoclonal antibody 21-4-3
# ASSAY REMARKS: SPR, 21-4-3 captured via anti-mouse IgG, 500 nM
Below, each of the binders is paired with its reported binding as % of Reference Sequence (=100%) value.
# output: bare number, implied unit %

Nanobody or Nanobody construct of SEQ ID NO: 65 (VHH) VHH: EVQLVESGGGLVQAGGSLRLSCAASRSIGRLDRMGWYRHRPGEPRELVATITGGSSINYGDSVKGRFTISIDNSKNTVYLQMNSLRPEDTAVYYCNFNKYVTSRDTWGQGTLVTVSS :: 23

Would you kindly look at the next entry?
INPUT: So what does the record say about binding as % of Reference Sequence (=100%) for Nanobody or Nanobody construct of SEQ ID NO: 89 (VHH) VHH: EVQLVESGGGSVQAGGSLRLSCAASRSIGRLDRMGWYRHRPGEPRELVATITGGSSINYGDSVKGRFTISIDNSKNTVYLQMNSLRPEDTAVYYCNFNKYVTSRDTWGQGTLVQVGG ?
OUTPUT: 2
